# TARGET OF ASSAY: T1, full-length beta-catenin (UniProt P35222 2-781, limits assumed)
# T1 construct: mature; also called full-length ß-Catenin; β-catenin
# T1 sequence (looked up): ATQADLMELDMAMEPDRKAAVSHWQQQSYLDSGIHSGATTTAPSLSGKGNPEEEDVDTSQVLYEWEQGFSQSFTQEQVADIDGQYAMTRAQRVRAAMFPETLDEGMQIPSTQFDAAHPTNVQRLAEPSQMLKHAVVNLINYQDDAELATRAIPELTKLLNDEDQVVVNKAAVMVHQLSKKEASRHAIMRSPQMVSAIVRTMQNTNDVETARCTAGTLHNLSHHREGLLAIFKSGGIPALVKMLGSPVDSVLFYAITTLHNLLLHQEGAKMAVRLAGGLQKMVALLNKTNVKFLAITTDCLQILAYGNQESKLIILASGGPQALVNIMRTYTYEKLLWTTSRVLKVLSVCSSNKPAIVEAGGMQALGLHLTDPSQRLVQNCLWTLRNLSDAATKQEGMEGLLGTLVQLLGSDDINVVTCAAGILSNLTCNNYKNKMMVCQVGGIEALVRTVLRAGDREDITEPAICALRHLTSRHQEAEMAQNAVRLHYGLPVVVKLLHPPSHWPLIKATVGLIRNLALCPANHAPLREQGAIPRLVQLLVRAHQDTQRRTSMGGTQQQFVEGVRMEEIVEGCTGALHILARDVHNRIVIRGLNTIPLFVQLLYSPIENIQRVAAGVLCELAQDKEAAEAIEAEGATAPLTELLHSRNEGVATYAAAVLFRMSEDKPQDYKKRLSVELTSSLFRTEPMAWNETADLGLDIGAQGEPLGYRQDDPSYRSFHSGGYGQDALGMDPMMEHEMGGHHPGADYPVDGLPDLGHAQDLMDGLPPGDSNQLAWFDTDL
# TEST SUMMARY: competition FP; amino staple (cyclic)
# Procedure: In some embodiments, a competition fluorescence polarization assay is used to assess binding of provided compounds to beta-catenin. […] Equal volume of the serial diluted peptide was added to the plate and incubated protected from light for 15 minutes prior to read. Reads were performed on a Spectramax M5 (Molecular Devices) in duplicate. […]
Numbered stars: 1 amine (or outer) side, 2 acyl side, 3 side chain; on linkers, the order of the positions; unused ones are H or OH. Bridge positions count the residues as written; N and C are the ends. Square brackets hold non-standard residues; d marks the D form. Primed or numbered codes have the meaning given here. R6 = (R)-2-(5-hexenyl)alanine, C=CCCCC[C@@](C)(N[*:1])C(=O)[*:2]; S6 = (S)-2-(5-hexenyl)alanine, C=CCCCC[C@](C)(N[*:1])C(=O)[*:2]; MC = Monomer C = PyrR, Alloc-pyrrolidine stapling residue; MA = Monomer A (Az), N-Alloc azetidine stapling residue; S7 = C[C@@](CCCCCC=[*:3])(N[*:1])C(=O)[*:2]; MB(7) = not defined here
METRIC NAME: pEC50
As a rule, pEC50 stands for the negative log10 of the concentration, concentration in M.

Check out these entries, answers already filled in.
[
  {
    "BINDER": "Ac-PQ[MA]ILD[R6]HVRRVWR-NH2 (staple 3-7; also: amino staple: CO2 extruded from MA carbamate staple with Pd(PPh3)4, also called FP-0725 (amino staple)) [FP0725a]",
    "METRIC NAME": "pEC50",
    "REPORTED MEASUREMENT": 6.24
  },
  {
    "BINDER": "Ac-PQ[MC]ILD[R6]HVRRVWR-NH2 (staple 3-7; also: amino staple: CO2 extruded from carbamate staple with Pd(PPh3)4, also called FP-0745 (amino staple); PR/R6) [FP0745a]",
    "METRIC NAME": "pEC50",
    "REPORTED MEASUREMENT": 6.68
  },
  {
    "BINDER": "Ac-PQ[S7]ILD[MB(7)]HVRRVWR-NH2 (staple 3-7; reading uncertain; also: amino staple: CO2 extruded from carbamate staple with Pd(PPh3)4, also called FP-0763 (amino staple)) [FP0763a]",
    "METRIC NAME": "pEC50",
    "REPORTED MEASUREMENT": 5.95
  }
]

binder Ac-PQ[S7]ILD[MA]HVRRVWR-NH2 (staple 3-7; also: amino staple: CO2 extruded from carbamate staple with Pd(PPh3)4, also called FP-0738 (amino staple); S7/Az) [FP0738a] , pEC50 observed: 6.70

binder Ac-PQ[S6]ILD[MA]HVRRVWR-NH2 (staple 3-7; also: amino staple: CO2 extruded from carbamate staple with Pd(PPh3)4, also called FP-0736 (amino staple)) [FP0736a] , pEC50 observed: 6.33
